test: NCI Yeast Anticancer Drug Screen. Data for the rad50EPP+ strain (AID 151);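 note: 0% = growth of vehicle-treated control cultures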; conditions: S. cerevisiae rad50 mutant strain, at 11.0 µM, stronger effect = higher value
This is part of a sample that, as a whole, favours compounds with a hit. Of some 79,000 tested, about 15% had one in any assay.
# binarize growth inhibition: threshold 30% inclusive, high side yes (1), low side no (0)

- CC(C)[N+]([O-])(CCCNc1c2ccccc2nc2cccc([N+](=O)[O-])c12)C(C)C: yes (1)
- CC(C)(C)c1nc2c(o1)C(=O)c1ccccc1C2=O: no (0)
- Oc1ccc2ccccc2c1C(c1ccc(Cl)cc1)c1c(O)ccc2ccccc12: no (0)
- CC(C)C1=CC2=C[C@H](O)[C@H]3C(C)(C)CCC[C@]3(C)C2=C(O)C1=O: yes (1)
- COc1ccc(N=C2C(=O)Nc3ccc(Br)cc32)cc1: no (0)
- Cc1c(C(=O)C(=O)c2ccccc2)c(C)c(C(=O)C(=O)c2ccccc2)c(C)c1C(=O)C(=O)c1ccccc1: no (0)
- Oc1c(Br)cc(Br)cc1C1CCCCC1: no (0)
- NCCNc1ccc(NCCN)c2c1C(=O)c1c(O)ccc(O)c1C2=O: yes (1)
- C[CH2][Sn]([CH2]C)([O]C(=O)C(OC(C)=O)c1ccccc1)[O]C(=O)C(OC(C)=O)c1ccccc1 (configuration not stated): no (0)
- COC1C=COC2(C)Oc3c(C)c(O)c4c(c3C2=O)/C(=N/C2CCC(O)OC2C)C=C(NC(=O)/C(C)=C\C(=O)C2CC2C(O)C(C)C(O)C(C)C(OC(C)=O)C1C)C4=O (configuration not stated): no (0)
- O=[N+]([O-])c1cc2no[n+]([O-])c2cc1N1CCCCC1: yes (1)
- O=C(O)c1ccccc1-c1ccccc1C(=O)Nc1ccc2c(c1)Cc1ccccc1-2: no (0)
- COc1cccc2nc3ccccc3nc12: yes (1)
- CC(C)NC(=O)OCc1c(COC(=O)NC(C)C)c(-c2ccc(Cl)c(Cl)c2)n2c1CCC2: no (0)
- O=C(/C=C\c1ccc(Cl)cc1Cl)c1cccs1: yes (1)
- O=C1C(Nc2ccccc2)=C(Oc2ccccc2)C(=O)c2ccccc21: no (0)
- O=CC=C(c1ccccc1)c1ccccc1: no (0)
- CC(O)C(O)C(O)C(/C=N\Nc1ccccc1)=N/Nc1ccccc1 (configuration not stated): yes (1)
- Fc1ccc(NC(=S)SCc2ccc3c(c2)OCO3)cc1F: yes (1)
- CSC(=S)Nc1cc(C)ccn1: no (0)
- Cc1ccc2ccc(O)cc2c1: no (0)
- O=C(CCCN1CCC(O)(c2ccc(Cl)cc2)CC1)c1ccc(F)cc1: no (0)

###

experiment: NCI Yeast Anticancer Drug Screen. Data for the sgs1 strain (AID 173);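 note: 0% = growth of vehicle-only control cultures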; conditions: S. cerevisiae sgs1 mutant, at 3.7 µM, stronger effect = higher value
The panel holds about 79,000 compounds, 15% with a hit somewhere; the sample as a whole holds those more often.
metric-name: growth inhibition (%)

• CN(C)Cc1cc(N=Nc2ccc(Cl)cc2)cc(CN(C)C)c1O = 8
• CSc1nc(=S)[nH]c2c1c(C)nn2-c1ccccc1 = -1
• CCCCCCc1cc(C(=O)OC/C(C)=N/NC(N)=O)c2ccccc2n1 = -4
• O=[N+]([O-])c1ccc2c(c1)C(N1CCN(CCO)CC1)Cc1ccc(F)cc1S2 (stereo not drawn) = -1
• [N-]=N[N+]#I1OC(C(F)(F)F)(C(F)(F)F)c2ccccc21 = 89
• CCCCCCCC1(N=[N+]=[N-])C(=O)c2ccccc2N(C)C1=O (stereo not drawn) = 14
• CCC(=O)c1cccc2ccccc12 = 3
• CCC(=O)Oc1c(Cl)cc(Cl)c2ccccc12 = -3
• c1ccc(-c2nc3cccnc3s2)cc1 = -3
• C[C@H](CCC(=O)NN)[C@H]1CC[C@H]2[C@@H]3CC[C@@H]4C[C@H](O)CC[C@]4(C)[C@H]3CC[C@]12C = 3
• CC1(Cl)CC(O)C2(CC1Br)C1(C)OC1C1OC1(Br)C2(C)C (stereo not drawn) = -33
• COC1=CC(=O)C2C(C1=O)C(c1ccc(Cl)cc1)[C@@H]2C (stereo partly drawn) = 48
• CCOC(=O)[C@H]1Nc2ccccc2C2c3ccccc3CC21 (stereo partly drawn) = 4
• Cc1c(C(=O)C(=O)c2ccccc2)c(C)c(C(=O)C(=O)c2ccccc2)c(C)c1C(=O)C(=O)c1ccccc1 = 0
• O=C(O)c1ccccc1NC(=S)c1ccccc1 = -6
• C(CCSC1=NCCN1)CSC1=NCCN1 (tested in a mixture with another compound) = 35
• CC1OCC2OC(C)OC(C3C4=C(CC(C)(C)CC4=O)OC4=C3C(=O)CC(C)(C)C4)C2O1 (stereo not drawn) = 1
• Cc1nc(-[n+]2nc(-c3ccncc3)nn2-c2ccccc2)sc1C = 7
• O=C(N=Nc1ccccc1Cl)NNc1ccccc1Cl = 5
• c1ccc2c(c1)sc1nc3ccncc3nc12 = -8
• Nc1ccn(C2OC(CO)C3[O][Sn]([c]4ccccc4)([c]4ccccc4)[O]C32)c(=O)n1 (stereo not drawn) = 0
• CCCCCCCCCCNC(=O)OCC = -1
• CCN(CC)[P+](c1ccccc1O)(N(CC)CC)N(CC)CC = -50

###

experiment: NCI Yeast Anticancer Drug Screen. Data for the rad14 strain (AID 159);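 note: 0% = growth of vehicle-treated control cultures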; conditions: S. cerevisiae rad14 strain growth inhibition; at 100.0 µM
The panel holds about 79,000 compounds, 15% with a hit somewhere; the sample as a whole holds those more often. The source made the active and inactive calls. Cut-off read from the data, not from the text of the source: active = growth inhibition above about 70%; inactive = the rest.
Outcomes: yes (1) = active, no (0) = inactive

- NC(=NCc1ccccc1)N/N=C\c1ccnc2ccccc12: no (0)
- O=C(/C=C\c1ccc(Cl)cc1Cl)c1cccs1: no (0)
- NNC(=O)CCc1ccc2ccc3ccccc3c2c1: no (0)
- O=C([O][Sn]([O]C(=O)c1ccccc1)([c]1ccccc1)[c]1ccccc1)c1ccccc1: yes (1)
- O=C1CSc2cc([N+](=O)[O-])ccc2N1: no (0)
- CC(=O)N/N=C/C(C)(C)C(C)(C)/C=N/NC(C)=O: no (0)
- Cc1cccc2c(C(O)CBr)cc(-c3ccc(Cl)cc3)nc12 (configuration not stated): yes (1)
- CCCCCCCCCCNC(=O)OCC: yes (1)
- C[C@H](CCC(=O)NN)[C@H]1CC[C@H]2[C@@H]3CC[C@@H]4C[C@H](O)CC[C@]4(C)[C@H]3CC[C@]12C: no (0)
- Nc1ccccc1CC(O)C(=O)O (configuration not stated): yes (1)
- O=C(N=Nc1cc(Cl)ccc1Cl)NNc1cc(Cl)ccc1Cl: no (0)
- BrCC[P+](c1ccccc1)(c1ccccc1)c1ccccc1: yes (1)

###

test: NCI Yeast Anticancer Drug Screen. Data for the cln2 rad14 strain (AID 165);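 note: 0% = growth equal to vehicle treated cultures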; settings: S. cerevisiae cln2 rad14 strain, at 50.0 µM, stronger effect = higher value
This is part of a sample that, as a whole, favours compounds with a hit. Of some 79,000 tested, about 15% had one in any assay.
metric-name: growth inhibition (%)

* c1ccc2c(c1)c1ncccc1c1nccnc21 | -40.5
* CCCCc1cc(O)ccc1O | 19.5
* CCN(CC)CC(O)c1ccc2ccc3ccccc3c2c1 (stereo not given) | 32
* O=[N+]([O-])c1cc2no[n+]([O-])c2cc1N1CCCCC1 | 90.7
* [N-]=N[N+]#I1OC(C(F)(F)F)(C(F)(F)F)c2ccccc21 | 92
* COc1ccc(NC(=S)N/N=C(\c2ccccc2)c2ccccn2)cc1 | 79.2
* O=C(O)c1ccccc1-c1ccccc1C(=O)Nc1ccc2c(c1)Cc1ccccc1-2 | 92.3
* COc1ccc(/C(C)=N/OC(=O)c2c(-c3ccccc3Cl)noc2C)cc1CN1CCOCC1 | 45.8
* COC1C=COC2(C)Oc3c(C)c(O)c4c(c3C2=O)/C(=N/C2CCC(O)OC2C)C=C(NC(=O)/C(C)=C\C(=O)C2CC2C(O)C(C)C(O)C(C)C(OC(C)=O)C1C)C4=O (stereo not given) | 81.4
* C[C@@H]1C[C@H]2[C@@H]3CCC4=CC(=O)C=C[C@]4(C)[C@@]3(Cl)[C@@H](Cl)C[C@]2(C)[C@@]1(O)C(=O)COP(=O)(O)O | 26.1
* FC(F)(F)c1nc2nc(Cl)c(Cl)nc2n1CCCN1CCOCC1 | -1.1
* CCOC(=O)c1cnc2cc(C(F)(F)F)ccc2c1N=[N+]=[N-] | 25.1
* CC(=O)Nc1ccc(/C=C(\C#N)c2ccc(C)cc2)cc1 | 19.2
* NC(=S)N/N=C\c1nccc2ccccc12 | 97.5
* O=C1C=CC(=O)N1c1ccc2c(c1)Cc1cc(NC(=O)C(F)(F)F)ccc1-2 | 62.9
* O=C([O][Sn]([O]C(=O)c1ccccc1)([c]1ccccc1)[c]1ccccc1)c1ccccc1 | 60
* COc1cc(C2c3cc4c(cc3OC(NNc3ccccc3)C2C)OCO4)cc(OC)c1OC (stereo not given) | 53
* CCCCOC(=O)N[C@H]1CCc2cc(OC)c(OC)c(OC)c2-c2ccc(SC)c(=O)cc21 | 58.3
* N#Cc1ccc(C2NN=CC23C(=O)c2ccccc2OC3c2ccccc2)cc1 (stereo not given) | 61
* O=C1c2cc([N+](=O)[O-])ccc2-c2cccc(F)c21 | 54.9
* CN(N=O)N1C(=O)SCC(c2ccccc2)(c2ccccc2)C1=O | 10.7
* BrCC[P+](c1ccccc1)(c1ccccc1)c1ccccc1 | 73.8
* O=C(N=Nc1ccccc1Cl)NNc1ccccc1Cl | 47.1
* CCCCN1C(=O)N(c2ccc(OCC)cc2)C2N(CCCC)C1C(C)(C)C2(C)C (stereo not given) | 21.1
* O=[N+]([O-])c1ccc2nc3ccccc3cc2c1 | 0.1
* CC(=O)Cc1ccc[cH-]1.[Fe+2].c1cc[cH-]c1 | 40.5
* CC(/C=C/c1ccc(Cl)cc1)=N\NC(=S)NCC(C)C | 17.6
* CCN(CC)CC[n+]1ccc2c(C)c3[nH]c4ccc(O)cc4c3c(C)c2c1 | -21.6
* O=C(O)c1cccc(-c2c3ccc(=O)cc-3oc3cc(O)ccc23)c1 | 51
* Cc1cc(CO)c(O)c(CNCc2cc(C)cc(CO)c2O)c1 | 72
* CC(C)c1ccccc1NC(=O)/C(Cl)=C(\Cl)C(=O)O | 51.6
* CCCCCCCCCCCCCCCCCCNC | 8.1
* CCOC(=O)C(NC(=O)c1ccccc1)(N1CCN(c2cc3c(cc2F)c(=O)c(C(=O)O)cn3C2CC2)CC1)C(F)(F)F (stereo not given) | 18.5
* NNc1c(F)c(F)cc(F)c1F | 46.9
* Oc1ccc(NCn2c(=S)sc3ccccc32)cc1 | 40
* O=C1Nc2ccccc2/C1=C/COc1ccccc1 | 98.2
* C(CCSC1=NCCN1)CSC1=NCCN1 (tested in a mixture with another compound) | 97.6
* O=C(/C=C/c1cccc(Br)c1)c1cccs1 | 46.5
* O=C(NCCCCCCCN1CCCCCCC1)C(C1CCCCC1)C1CCCCC1 | 96.5
* O=C(Nc1ccc(Cl)cc1)OCC#CCCl | -19.2
* CSC(=S)Nc1cccc(C)n1 | 38.2
* COc1ccc(C2c3cc4c(cc3OC(C)(O)C2C)OCO4)c(OC)c1 (stereo not given) | 89.3
* CC(Br)C(=O)c1ccc2cc(Br)c3ccccc3c2c1 (stereo not given) | 26.5
* CCc1ncnc2cc(OCC3CO3)c(OC)cc12 (stereo not given) | 79.1
* O=C(N=Nc1cc(Cl)ccc1Cl)NNc1cc(Cl)ccc1Cl | 71.8
